tested on: SW-620 colon; assay: NCI-60 one-dose screen, 48 h (100 = growth as untreated, 0 = no growth, -100 = all killed); settings: 10 µM unless noted
This is part of a sample that, as a whole, favours compounds with a hit. Of some 83,000 tested, about 20% had one in any assay.
So I've got a bunch of compounds here, and I need their growth values.
Give bare numbers, in %.

What does the record list as growth for `O=C(c1ccc(Cl)cc1)c1ccc(OCCCN2CCN(c3ccncc3)CC2)cc1` ?
19.5

What does the record list as growth for `COc1ccc(C(=O)/C=C/c2cccc(Cl)c2Cl)cc1S(N)(=O)=O` ?
-47.3

What does the record list as growth for COC(OC)C1=C(C)OC(N)=C(C#N)C12C(=O)Nc1ccccc12 (stereo not given) ?
85.5

What does the record list as growth for `N/C(=N\N=C\c1ccc([N+](=O)[O-])cc1)c1c(N)nc(=S)[nH]c1-c1ccc(Cl)cc1Cl` ?
108

Please examine the following record next.
What does the record list as growth for CCCS(=O)(=O)N1CCCC(C(=O)Nc2nc3ccc(NC(=O)c4ccc(F)c(OC)c4F)cc3s2)C1 (stereo not given) ?
81.6

###

tested on: RPMI-8226 leukemia; assay: NCI-60 one-dose screen, 48 h (100 = growth as untreated, 0 = no growth, -100 = all killed); details: 10 µM unless noted
Compounds without any hit were thinned out: in the full panel of roughly 83,000, 20% have a hit.
So I've got a bunch of compounds here, and I need their growth values.
One number for each entry, in %.

Notebook: pull reported growth for RPMI-8226 leukemia, entry `COc1ccccc1/C=C/C(=O)c1ccc(OC)c(S(N)(=O)=O)c1`
4.34

Notebook: pull reported growth for RPMI-8226 leukemia, entry CC(=O)OC[C@@]1(C)C2CC[C@]3(C)C(CC=C4C5CC(C)(C)CC[C@]5(C(=O)Nc5cccc(C)c5)CC[C@]43C)[C@@]2(C)C[C@@H](OC(C)=O)[C@@H]1OC(C)=O (stereo not given in full)
15.9

Notebook: pull reported growth for RPMI-8226 leukemia, entry `CCN(CC)c1ccc(/C=N/Nc2nc(-c3ccc(C)cc3)cs2)c(O)c1`
74.3

Notebook: pull reported growth for RPMI-8226 leukemia, entry `COc1ccc(NC(=O)Cn2c(O)c(N=Nc3ccc(S(N)(=O)=O)cc3)c3ccccc32)cc1`
71.6

Notebook: pull reported growth for RPMI-8226 leukemia, entry `Cn1cc(-c2cc(N)n3nc(-c4cn(C)c5ccccc45)cc3n2)c2cc(Br)ccc21`
0.257

Below are some compounds; for each one, tell me its growth.
1. Cc1ccc(NC(=O)CN2CCN(c3ncnc4c3cnn4-c3ccccc3)CC2)cc1
2. Cc1cc(=O)oc2cc(OCCCCOc3ccc(/C=C/C(=O)Nc4ccccc4N)cc3)ccc12
3. CCCCOc1ccc(NC(=O)c2sc3nc(C)ccc3c2N)cc1
4. CCOC(=O)/C=C/c1cccc2c1C(=O)NC(C)(c1cc3cc(Br)ccc3oc1=O)N2 (stereo not given)
5. CC(C)CCNC(=O)N/C(N)=N/c1nc2ccccc2s1

1. 75.8
2. 18.7
3. 32.4
4. 32
5. 38.2

###

system: SF-268 CNS; assay: NCI-60 one-dose screen, 48 h; details: 10 µM unless noted
About 83,000 compounds went through this panel and 20% of them were active in at least one assay; those are over-represented in the sample as a whole. Activity calls are given as the source filed them. The calls were made as follows: active = growth percent below 10; inactive = the rest.
One label from this list, please: 1 = active, -1 = inactive

Hi team, can someone confirm the assay call for `Cn1cc(-c2cc3nc(-c4cn(C)c5ncc(Br)cc45)cc(N)n3n2)c2cc(Cl)ccc21` ?
-1

Hi team, can someone confirm the assay call for `O=C(N/N=C/c1ccc(-c2ccc(O)cc2)s1)c1[nH]c2ccc(Br)cc2c1-c1ccccc1` ?
-1

Hi team, can someone confirm the assay call for O=C1CC(Sc2n[nH]c(-c3ccncc3)n2)C(=O)N1c1ccc(Br)cc1 (stereo not drawn) ?
-1

Further cases:
Hi team, can someone confirm the assay call for `N#Cc1c(NCc2ccccc2)n[nH]c1Nc1ccccc1` ?
-1

Hi team, can someone confirm the assay call for `N#Cc1cnn(C(=O)c2ccccc2Br)c1NC(=O)c1ccc(Br)cc1Cl` ?
-1

Hi team, can someone confirm the assay call for `C[C@H]1CN(C(=O)c2ccc3c(NNC(=O)c4ccncn4)nc4cc(F)c(F)cc4n23)CCN1` ?
-1

###

tested on: SK-MEL-28 melanoma; assay: NCI-60 one-dose screen, 48 h (100 = growth as untreated, 0 = no growth, -100 = all killed); settings: 10 µM unless noted
This is part of a sample that, as a whole, favours compounds with a hit. Of some 83,000 tested, about 20% had one in any assay.
Experimental Readout: growth (%)
One number for each entry, in %.

What does the record list as growth for `NS(=O)(=O)c1ccc(-n2cc(-c3cccc(NC(=O)c4cc(N5CCOCC5)cc(C(F)(F)F)c4)c3)nn2)cc1` ?
36.9

What does the record list as growth for `COc1ccc2[nH]c(O)c(N=NC(=O)COc3ccc(NC(=O)Nc4ccccc4)cc3)c2c1` ?
8.57

What does the record list as growth for `O=C1Nc2cc(Cl)ccc2/C1=C/c1cccc(OCc2ccccn2)c1` ?
39.5

Below are some compounds; for each one, tell me its growth.
1. CC1[C@H]2[C@H](C[C@H]3[C@@H]4CC=C5c6sc(Nc7ccccc7F)nc6CC[C@]5(C)[C@H]4CC[C@@]32C)O[C@]12CC[C@@H](C)CO2 (stereo partly drawn)
2. CCCCCCCCc1ccc(S(=O)(=O)Nc2ccc(CC)cc2C(=O)O)cc1
3. COc1ccc(-c2nc3ccc(C(=O)NN4C(=O)c5ccc([N+](=O)[O-])cc5C4=O)cc3[nH]2)cc1

1: -97.1; 2: 104; 3: 95.6

Below are some compounds; for each one, tell me its growth.
1. COc1ccc(/C=C2\C(=O)Nc3ccc(Cl)cc32)cc1OCc1ccccn1
2. CCOC(=O)C1=C(N)N(c2ccccc2)C2=C(C(=O)CC(C)(C)C2)C1c1ccc(Cl)cc1Cl (stereo not drawn)

68
51.3

###

test system: TK-10 renal; assay: NCI-60 one-dose screen, 48 h (100 = growth as untreated, 0 = no growth, -100 = all killed); conditions: 10 µM unless noted
About 83,000 compounds went through this panel and 20% of them were active in at least one assay; those are over-represented in the sample as a whole.
So I've got a bunch of compounds here, and I need their growth values.
Answers are plain numbers, in %.

A selection of reference data follows.
Notebook: pull reported growth for TK-10 renal, entry `COc1ccc(/C=C/c2nc3ccccc3n3c(-c4ccc(Cl)cc4)nnc23)cc1`
106

Notebook: pull reported growth for TK-10 renal, entry Cc1ccc(C2CC(c3ccc(S(=O)(=O)NCCNc4nc(Nc5ccc(F)cc5)nc(N(C)C)n4)cc3)=Nc3c(N)nc(N)nc3N2)cc1 (centres undefined)
96.5

Notebook: pull reported growth for TK-10 renal, entry `CC(C)CCNC(=O)N/C(N)=N/c1nc2ccccc2s1`
88.3

Notebook: pull reported growth for TK-10 renal, entry `O=C(NNc1nc2cc(F)ccc2n2c(C(=O)N3CCN(C4CC4)CC3)ccc12)c1ncccn1`
30.2

Notebook: pull reported growth for TK-10 renal, entry `CSc1ccc(NC(=O)c2ccc3nn(/C(C#N)=C/c4ccccn4)nc3c2)cc1`
-94.7

Below are some compounds; for each one, tell me its growth.
1. COc1ccc(-c2nc(SCC(C)C)nc(NCCc3c[nH]c4ccccc34)c2C#N)cc1
2. O=C(c1ccc(OCCN2CCOCC2)cc1)C1[C@H](c2ccc(Cl)cc2)[C@@H](c2ccccc2)NC12C(=O)Nc1ccc(Br)cc12 (some centres undefined)
3. CCN(CC)c1ccnc(CNCCSC(c2ccccc2)(c2ccccc2)c2ccc(C)cc2)c1

1. 120
2. 40.2
3. -85.7

Notebook: pull reported growth for TK-10 renal, entry `O=[N+]([O-])c1ccc(/C=C/c2nc3ccccc3n3c(=S)[nH]nc23)cc1`
127

###

test system: SK-OV-3 ovarian; test: NCI-60 one-dose screen, 48 h (100 = growth as untreated, 0 = no growth, -100 = all killed); details: 10 µM unless noted
The panel holds about 83,000 compounds, 20% with a hit somewhere; the sample as a whole holds those more often.
Label TRUE when growth is at or above 60%; anything below gets FALSE.

Here's what some known entries look like.
Is the recorded value of growth equal to or greater than 60% for this molecule? `CSc1ccc(C(=O)Nc2ccc3nnn(/C(C#N)=C/c4ccccn4)c3c2)cc1`
TRUE

Is the recorded value of growth equal to or greater than 60% for this molecule? `Nc1cccc(SCc2cc3ccccc3[nH]c2=O)c1`
TRUE

Is the recorded value of growth equal to or greater than 60% for this molecule? `CC(=O)Oc1ccccc1C(=O)[Se]C(=NC1CCCCC1)NC1CCCCC1`
FALSE

Is the recorded value of growth equal to or greater than 60% for this molecule? `Cc1cc2nc3c4ccccc4n(CC4=NCCN4)c3nc2cc1C`
FALSE

Is the recorded value of growth equal to or greater than 60% for this molecule? COc1c(F)ccc(C(=O)Nc2ccc3nc(NC(=O)C4CCCN(S(=O)(=O)c5ccc(C(F)(F)F)cc5)C4)sc3c2)c1F (stereo not given)
TRUE

Further cases:
Is the recorded value of growth equal to or greater than 60% for this molecule? `Nc1cc2ccccc2c(=O)n1NC(=O)c1ccc(I)cc1`
TRUE

Is the recorded value of growth equal to or greater than 60% for this molecule? `COc1cccc(/C=C/C(=O)c2ccc(OC)c(S(N)(=O)=O)c2)c1`
TRUE

Is the recorded value of growth equal to or greater than 60% for this molecule? CCOC(=O)/C=C/c1cccc2c1C(=O)NC(C)(c1cc3cc(Br)ccc3oc1=O)N2 (stereo not given)
FALSE

Is the recorded value of growth equal to or greater than 60% for this molecule? `Cc1ccc(-c2nc(C#N)c(S(=O)(=O)N3CCN(S(=O)(=O)c4ccccc4)CC3)o2)cc1`
TRUE

Is the recorded value of growth equal to or greater than 60% for this molecule? `Clc1cccc(N/N=C/c2c[nH]c3ccc(Br)cc23)n1`
FALSE

Every entry's value here was drawn from PubChem BioAssay (NCI).
